Measured target: CaBem1-D1
Protocol text: SPOT peptide array binding signal intensity (averaged, normalized) (arbitrary units (background-subtracted, floor 0; scale differs between SH3 domains)); higher = stronger binding of the SH3 domain to the peptide
Returns one of true or false; true when SPOT peptide array binding signal intensity is >= 20.

Binder | Qualitative label
ISNFVPPNLPMRRFK | true

input: Reported SPOT peptide array binding signal intensity reaches at least 20 for `GKFIPSRPAPKPPSS` ?
output: true

input: `QRKSLRRPTLSKPAV` , same question.
output: true

input: `LRWRHKFFLPAIAAI` , same question.
output: false

input: `DTFLPPPPPPPSNFE` , same question.
output: false

input: `MTKTPETSPPKRPMG` , same question.
output: false

input: `QFDLKMPSKPIHNLK` , same question.
output: true

input: `PKMLPIPSKPTLFDL` , same question.
output: true
